Taken from ChEMBL document CHEMBL4118151.

assay: Selectivity index, ratio of CC50 for MDCK cells to IC50 for amantadine/rimantadine-resistant Influenza A virus (A/Puerto Rico/8/34(H1N1)); assay type: toxicity; conditions: dog, read-out: Ratio CC50/IC50
metric: selectivity ratio
Give the figure only, with no unit attached.

Q: Suppose we examine the compound `CCCC1(CCC)C[C@@](C)(O)[C@@H]2CC[C@@H](C)C[C@@H]2O1` ; what selectivity ratio value has been reported?
A: 3

Q: Look at this compound and give its reported selectivity ratio. `C[C@@H]1CC[C@@H]2[C@@H](C1)OC(C)(C)C[C@]2(C)O`
A: 12

Q: // lookup selectivity ratio for `C[C@@H]1CC[C@@H]2[C@H](C1)OC1(CCCC1)C[C@@]2(C)O`
A: 96

Q: May I ask what selectivity ratio has been recorded for `CCC1(CC)C[C@@](C)(O)[C@@H]2CC[C@@H](C)C[C@@H]2O1` ?
A: 10

Q: Please report the recorded selectivity ratio for C[C@@H]1CC[C@@H]2[C@H](C1)OC(C)(C)CC2(C)O (stereo not given in full) .
A: 4

====

experiment: Selectivity index, ratio of CC50 for MDCK cells to IC50 for amantadine/rimantadine-resistant Influenza A virus (A/Puerto Rico/8/34(H1N1)); format: toxicity; details: dog, read-out: Ratio CC50/IC50
Measured selectivity ratio of individual entries
Reply: number alone, nothing else.

Completed entries (count: 3):
# molecule, selectivity ratio
rows = [
    ("C[C@@H]1CC[C@@H]2[C@H](C1)OC1(CCCCC1)C[C@@]2(C)O", 34),
    ("C[C@@H]1CC[C@@H]2[C@H](C1)OC1(CCCCCC1)C[C@@]2(C)O", 3),
    ("C[C@@H]1CC[C@@H]2[C@@H](C1)O[C@@H](C1CCCCC1)C[C@@]2(C)O", 2),
]

Now look at this entry.
Q: Fill blank: measured selectivity ratio of the molecule CC(N)C12CC3CC(CC(C3)C1)C2 (centres undefined) is ____.
A: 4

====

assay: Selectivity index, ratio of CC50 for MDCK cells to IC50 for amantadine/rimantadine-resistant Influenza A virus (A/California/07/09(H1N1)); format: toxicity; conditions: dog, read-out: Ratio CC50/IC50
metric: selectivity ratio
Kindly provide the number alone.

Q: # selectivity ratio lookup, item `C[C@@H]1CC[C@@H]2[C@@H](C1)OC(C)(C)C[C@@]2(C)O`
A: 1570

====

assay: Selectivity index, ratio of CC50 for MDCK cells to IC50 for osaltamivir-resistant Influenza A virus (A/Vladivostok/02/09(H1N1)); assay type: toxicity; details: dog, read-out: Ratio CC50/IC50
metric: selectivity ratio
Format: numeric value only, no unit, no commentary.

Q: // returns reported selectivity ratio for input `C[C@@H]1CC[C@@H]2[C@@H](C1)OC(C)(C)C[C@@]2(C)O`
A: 1
